B1: HDV Ribozyme (parent)
chain: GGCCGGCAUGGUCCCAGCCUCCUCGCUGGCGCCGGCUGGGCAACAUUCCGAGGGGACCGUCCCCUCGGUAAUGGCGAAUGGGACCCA

# Variants of: B1
# ASSAY SUMMARY: self-cleavage, relative activity (ratio to wild type); higher = more cleavage; co-transcriptional
Mark T for reported self-cleavage of 0.5 or greater; mark F for anything smaller.

G35C C86U: F
A16G U69G: T
G52U A78C: F

For this variant, is measured self-cleavage 0.5 or higher? A8U G25U
F

Another variant to check: G35A U69G
T

Another variant to check: G68C A87C
T

Another variant to check: C41U G74A
T
